Source listed as patent US9266871B2.

assay: Pharmacokinetic parameters following intravenous and oral administration; assay type: in vivo, rat; settings: male, Wistar, rat, plasma; rats; i.v. 0.3 mg/kg and oral 1 mg/kg
OUTCOME_MEASURE: MRT (h)

| COMPOUND | VALUE_REPORTED |
| --- | --- |
| C[C@@]1(C(F)(F)F)C(=O)Nc2nc(-c3nn(Cc4ncccc4F)c4ncc(F)cc34)nc(NCCC(F)(F)F)c21 (single isomer, unassigned) [Example 1-1] | 6.6 |

* * *

assay: Pharmacokinetic parameters following intravenous and oral administration; type: in vivo, rat; settings: male, Wistar, rat, plasma; rats; i.v. 0.3 mg/kg and oral 1 mg/kg

| MOLECULE | half-life, h |
| --- | --- |
| C[C@@]1(C(F)(F)F)C(=O)Nc2nc(-c3nn(Cc4ncccc4F)c4ncc(F)cc34)nc(NCCC(F)(F)F)c21 (single isomer, unassigned) [Example 1-1] | 5.9 |
